assay_system: T1, EsCas13d, nuclease-dead (Eubacterium siraeum, UniProt B0MS50, R295A;H300A;R849A;H854A)
T1 sequence: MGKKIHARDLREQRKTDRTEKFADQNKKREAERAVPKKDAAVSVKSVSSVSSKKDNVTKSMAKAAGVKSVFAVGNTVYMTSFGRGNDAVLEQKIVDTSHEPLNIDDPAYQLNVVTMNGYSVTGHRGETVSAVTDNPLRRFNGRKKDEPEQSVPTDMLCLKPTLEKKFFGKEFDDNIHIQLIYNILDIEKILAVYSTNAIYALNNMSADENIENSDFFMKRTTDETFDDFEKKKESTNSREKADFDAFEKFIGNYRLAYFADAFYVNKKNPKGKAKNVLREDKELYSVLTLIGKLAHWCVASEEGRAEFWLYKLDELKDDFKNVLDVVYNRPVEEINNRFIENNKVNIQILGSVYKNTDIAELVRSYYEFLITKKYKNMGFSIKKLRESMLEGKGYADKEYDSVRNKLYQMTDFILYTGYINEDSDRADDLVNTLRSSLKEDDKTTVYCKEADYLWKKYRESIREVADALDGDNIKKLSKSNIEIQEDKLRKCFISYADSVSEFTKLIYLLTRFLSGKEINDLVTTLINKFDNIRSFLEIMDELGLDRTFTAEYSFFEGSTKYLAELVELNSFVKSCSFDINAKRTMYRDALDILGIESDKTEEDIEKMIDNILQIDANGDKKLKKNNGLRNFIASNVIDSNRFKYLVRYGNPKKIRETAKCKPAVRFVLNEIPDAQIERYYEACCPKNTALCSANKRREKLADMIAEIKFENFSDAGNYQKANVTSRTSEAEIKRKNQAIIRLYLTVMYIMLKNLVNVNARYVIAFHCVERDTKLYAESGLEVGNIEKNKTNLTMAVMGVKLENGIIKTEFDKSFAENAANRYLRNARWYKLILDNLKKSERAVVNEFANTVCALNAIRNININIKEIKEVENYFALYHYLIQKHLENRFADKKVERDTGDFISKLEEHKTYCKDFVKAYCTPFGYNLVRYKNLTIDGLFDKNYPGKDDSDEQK
test_protocol: crRNA (strand 1, pre-loaded); Mg2+; 40 mM Tris-HCl pH 7.5, 150 mM NaCl, 6 mM MgCl2, 1 mM DTT, 0.1% Tween-20, 0.2 mg/ml BSA; 25 C; 10 min per concentration, then washed
condition_info: tags: His6-TwinStrep-SUMO cleaved; N-terminal SNAP kept (SNAP-Surface 488); label: 3' end held by stalled T7 RNA polymerase
pKd: −log10 of the molar value.
pKd by entry:

- binder: "target 1 MT 5'PFS GGG 3'PFS AAC (mixed) RNA 1: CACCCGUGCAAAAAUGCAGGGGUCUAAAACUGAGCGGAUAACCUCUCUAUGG RNA 2: GGGAAUGGAUCCACAUCUACGAAUUCGGGCCAUAGAGAGGUUAUCCGCUCAAACAGAUCGGAAGAGCACACGU"
  pKd: 7.45
- binder: "target 1 insU 3' of 17,insC 3' of 13 (mixed) RNA 1: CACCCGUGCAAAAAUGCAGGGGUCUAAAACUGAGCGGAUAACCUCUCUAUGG RNA 2: GGGAAUGGAUCCACAUCUACGAAUUCGUACCAUAGUAGAGCGUUAUCCGCUCACCGAGAUCGGAAGAGCACACGU"
  pKd: 7.36
- binder: "target 1 G15U,A18U (mixed) RNA 1: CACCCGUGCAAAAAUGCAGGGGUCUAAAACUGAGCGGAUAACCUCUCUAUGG RNA 2: GGGAAUGGAUCCACAUCUACGAAUUCGUACCAUUGAUAGGUUAUCCGCUCACCGAGAUCGGAAGAGCACACGU"
  pKd: 7.15
- binder: "target 2 MT 5'PFS GAA 3'PFS UAA (mixed) RNA 1: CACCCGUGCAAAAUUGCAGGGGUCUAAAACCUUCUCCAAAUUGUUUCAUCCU RNA 2: GGGAAUGGAUCCACAUCUACGAAUUCGAAAGGAUGAAACAAUUUGGAGAAGUAAAGAUCGGAAGAGCACACGU"
  pKd: 8.14

Every entry's value here was drawn from paper PMC10786891.
